Data provenance is the supplement of paper PMC8149375.

Tested on: ACHN
protocol: minimum viability across doses, drug alone, relative to DMSO (fraction); higher = less growth inhibition
cond: treatment: drug alone; 5 days
We label by threshold. Values of minimum viability across doses strictly beneath 0.8 are Fulfilled. Values of 0.8 and up are Not fulfilled.

Task: Is minimum viability across doses of C[C@@H]1CCN(C(=O)CC#N)C[C@@H]1N(C)c1ncnc2[nH]ccc12 strictly below 0.8?
Output: Not fulfilled

Task: Criterion: minimum viability across doses strictly below 0.8. Is it met by COc1ccc2cc(-c3[nH]c(-c4ccc(S(C)=O)cc4)nc3-c3ccncc3)ccc2c1 (stereo not given) ?
Output: Fulfilled

Task: A record lists C[C@@H](Oc1cc(-n2cnc3ccc(CN4CCN(C)CC4)cc32)sc1C(N)=O)c1ccccc1C(F)(F)F . Is its minimum viability across doses below 0.8?
Output: Fulfilled

Task: Given O=c1cc(N2CCOCC2)oc2c(-c3cccc4c3sc3ccccc34)cccc12 , is recorded minimum viability across doses strictly lower than 0.8?
Output: Fulfilled

* * *

Test system: TK-10
protocol: GI50, drug alone; higher = less potent
cond: treatment: drug alone; 5 days
Mark true (1) for GI50, drug alone under 3 µM, false (0) if at or over.

Task: Is 3 µM strictly greater than the compound's reported GI50, drug alone? compound: COc1cc2nccc(Oc3ccc(NC(=O)Nc4ccc(F)cc4F)c(F)c3)c2cc1OC
Output: false (0)

Task: Is the reported GI50, drug alone for Nc1cc(C(F)(F)F)c(-c2cc(N3CCOCC3)nc(N3CCOCC3)n2)cn1 strictly below 3 µM?
Output: true (1)

Task: Confirm or reject: GI50, drug alone of Oc1cccc(-c2nc(N3CCOCC3)c3oc4ncccc4c3n2)c1 lies strictly below 3 µM
Output: true (1)

Task: Identify whether the compound COc1ccc(-c2ccc3c(N4CCOCC4)nc(N4C[C@@H](C)O[C@@H](C)C4)nc3n2)cc1CO records GI50, drug alone below 3 µM.
Output: true (1)

Task: Take the compound Nc1nc(N)c2nc(-c3cccc(O)c3)cnc2n1 and say whether its GI50, drug alone is less than 3 µM.
Output: false (0)

Task: Find out if reported GI50, drug alone for Cc1cc(C(C)Nc2ccccc2)c2nc(N3CCOCC3)cc(=O)n2c1 (stereo unspecified) is less than 3 µM
Output: false (0)

Task: Does CCN1CCN(c2ccc(Nc3cc(N(C)C(=O)Nc4c(Cl)c(OC)cc(OC)c4Cl)ncn3)cc2)CC1 have GI50, drug alone strictly under 3 µM?
Output: false (0)

Task: Quick check: GI50, drug alone of Cc1ccc([N+](=O)[O-])cc1S(=O)(=O)N(C)/N=C/c1cnc2ccc(Br)cn12.Cl under 3 µM?
Output: true (1)

Task: Hello, is GI50, drug alone of the following compound strictly smaller than 3 µM? CC(O)C(=O)O.CC(O)C(=O)O.CN1CCN(c2ccc3nc(-c4c(N)c5c(F)cccc5[nH]c4=O)[nH]c3c2)CC1
Output: false (0)

Task: Is GI50, drug alone of CS(=O)c1ccc(-c2nc(-c3ccc(F)cc3)c(-c3ccncc3)[nH]2)cc1 (stereo unspecified) strictly below 3 µM?
Output: false (0)

Task: Below 3 µM on GI50, drug alone? Entry O=C1NC(=O)/C(=C/c2ccc(-c3ccc(F)cc3O)o2)S1
Output: false (0)

Task: Hi there! Is GI50, drug alone for Cn1cc(-c2ccc3nnc(C(F)(F)c4ccc5ncccc5c4)n3n2)cn1 below 3 µM, do you know?
Output: false (0)

Task: Record NC(=O)c1ccc(N(C(N)=O)c2c(F)cccc2F)nc1-c1ccc(F)cc1F : is its GI50, drug alone strictly below 3 µM?
Output: false (0)

Task: hey, is GI50, drug alone for Cn1cc(-c2ccc3nnc(Sc4ccc5ncccc5c4)n3n2)cn1 lower than 3 µM or not?
Output: false (0)

Task: Answer whether the compound O=C1NCCc2[nH]c(-c3ccncc3)cc21 has GI50, drug alone strictly less than 3 µM
Output: false (0)

Task: API: query returns whether the compound falls strictly under 3 µM in GI50, drug alone. Query: CNC(=O)c1cc(Oc2ccc(NC(=O)Nc3cc(C(C)(C)C)nn3-c3ccc4ncccc4c3)c(F)c2)ccn1 [DCC-2036 (Rebastinib)]
Output: true (1)

* * *

System: A498
protocol: minimum viability across doses, drug + dasatinib, relative to DMSO (fraction); higher = less growth inhibition
cond: treatment: drug + dasatinib (fixed dose, not stated); 5 days
parameter: minimum viability across doses

Task: Name the recorded minimum viability across doses for O=C(O)c1ccc2c(c1)nc(Nc1cccc(Cl)c1)c1ccncc12 [cx-4945 (Silmitasertib)] + Cc1nc(Nc2ncc(C(=O)Nc3c(C)cccc3Cl)s2)cc(N2CCN(CCO)CC2)n1 [dasatinib] .
Output: 0.47

Task: Which minimum viability across doses is reported for this molecule? COc1ccc2c(Oc3ccc(NC(=O)c4c(C)n(CC(C)(C)O)n(-c5ccccc5)c4=O)nc3)ccnc2c1 [AMG458] + Cc1nc(Nc2ncc(C(=O)Nc3c(C)cccc3Cl)s2)cc(N2CCN(CCO)CC2)n1 [dasatinib]
Output: 0.771

Task: What value of minimum viability across doses has been recorded for this entry: CO[C@H]1C[C@H]2CC[C@@H](C)[C@@](O)(O2)C(=O)C(=O)N2CCCC[C@H]2C(=O)O[C@H]([C@H](C)C[C@@H]2CC[C@H](OP(C)(C)=O)[C@H](OC)C2)CC(=O)[C@H](C)/C=C(\C)[C@@H](O)[C@@H](OC)C(=O)[C@H](C)C[C@H](C)/C=C/C=C/C=C/1C (stereo in doubt) [Deforolimus (Ridaforolimus)] + Cc1nc(Nc2ncc(C(=O)Nc3c(C)cccc3Cl)s2)cc(N2CCN(CCO)CC2)n1 [dasatinib]
Output: 0.493

Task: # query: minimum viability across doses of entry C=CCc1cccc(/C=N/NC(=O)CN2CCN(Cc3ccccc3)CC2)c1O [PAC-1] + Cc1nc(Nc2ncc(C(=O)Nc3c(C)cccc3Cl)s2)cc(N2CCN(CCO)CC2)n1 [dasatinib]
Output: 0.169

* * *

Tested on: UO-31
protocol: AUC of dose-response viability curve, drug alone (arbitrary (AUC of normalised viability)); higher = less growth inhibition
cond: treatment: drug alone; 5 days
Could you please report measured AUC of dose-response viability curve for the items listed next?
Output spec: single numeric token, no unit.

Task: Entry O=C1c2ccccc2-c2n[nH]c3cccc1c23 : reported AUC of dose-response viability curve = ?
Output: 3.08

Task: Look up AUC of dose-response viability curve: Nc1nc(Nc2ccc(S(N)(=O)=O)cc2)nn1C(=O)c1c(F)cccc1F
Output: 3.19

Task: Given the entry O=C(O)c1ccc(Nc2ncc3c(n2)-c2ccc(Cl)cc2C(c2c(F)cccc2F)=NC3)cc1 [MLN8054] , report its measured AUC of dose-response viability curve.
Output: 3.59

Task: Could you tell me which AUC of dose-response viability curve is on file for CC(C)(C)c1cc(NC(=O)Nc2ccc(-c3cn4c(n3)sc3cc(OCCN5CCOCC5)ccc34)cc2)no1 [Quizartinib (AC220)] ?
Output: 5.25

* * *

Test system: 786-O
protocol: AUC of dose-response viability curve, drug alone (arbitrary (AUC of normalised viability)); higher = less growth inhibition
cond: treatment: drug alone; 5 days
For each record, check the reported AUC of dose-response viability curve: if it is below 3 write Y, else write N.

Task: Hello, is AUC of dose-response viability curve of the following molecule strictly smaller than 3? O=C(O)c1ccc2c(c1)nc(Nc1cccc(Cl)c1)c1ccncc12 [cx-4945 (Silmitasertib)]
Output: Y

Task: In plain terms, does OCCn1cc(-c2cnc3nnn(Cc4ccc5ncccc5c4)c3n2)cn1 come in under 3 for AUC of dose-response viability curve?
Output: N

Task: Does the reported AUC of dose-response viability curve of Cn1cc(-c2ccc3ncc(Cc4ccc5ncccc5c4)n3n2)cn1 [NVP-BVU972] stay below 3?
Output: Y

* * *

System: TK-10
protocol: minimum viability across doses, drug + dasatinib, relative to DMSO (fraction); higher = less growth inhibition
cond: treatment: drug + dasatinib (fixed dose, not stated); 5 days
Give minimum viability across doses for every item shown.
// return a plain number; no unit text

Task: Reported minimum viability across doses for CC(=O)c1c(C)c2cnc(Nc3ccc(N4CCNCC4)cn3)nc2n(C2CCCC2)c1=O.Cl + Cc1nc(Nc2ncc(C(=O)Nc3c(C)cccc3Cl)s2)cc(N2CCN(CCO)CC2)n1 [dasatinib] : what is it?
Output: 0.186

Task: Please look up its minimum viability across doses: O=C(NCc1ccccc1)c1csc(Nc2ccncn2)n1 [Thiazovivin] + Cc1nc(Nc2ncc(C(=O)Nc3c(C)cccc3Cl)s2)cc(N2CCN(CCO)CC2)n1 [dasatinib]
Output: 0.494

Task: State the recorded minimum viability across doses for this entry: CC(=O)Nc1cccc(-n2c(=O)n(C3CC3)c(=O)c3c(Nc4ccc(I)cc4F)n(C)c(=O)c(C)c32)c1 + Cc1nc(Nc2ncc(C(=O)Nc3c(C)cccc3Cl)s2)cc(N2CCN(CCO)CC2)n1 [dasatinib]
Output: 0.235

Task: Which minimum viability across doses value belongs to Cc1cc2c(C(C)C)c(O)c(O)c(C=O)c2c(O)c1-c1c(C)cc2c(C(C)C)c(O)c(O)c(C=O)c2c1O [AT101] + Cc1nc(Nc2ncc(C(=O)Nc3c(C)cccc3Cl)s2)cc(N2CCN(CCO)CC2)n1 [dasatinib] ?
Output: 0.517

Task: Please look up its minimum viability across doses: CCOc1ccn(-c2ccc(F)cc2)c(=O)c1C(=O)Nc1ccc(Oc2ccnc(N)c2Cl)c(F)c1 + Cc1nc(Nc2ncc(C(=O)Nc3c(C)cccc3Cl)s2)cc(N2CCN(CCO)CC2)n1 [dasatinib]
Output: 0.634
